koff values by entry
# experimental.system: T1, recombinant human 4-1BB extracellular domain protein (human, UniProt Q07011 24-186)
# T1 construct: extracellular domain; Analyte in the Octet assay; also called CD137; TNFRSF9
# test.summary: Octet BLI; chimeric IgG from transfection supernatant on anti-human Fc biosensor; recombinant human 41BB; column kdis(1/s) Human
Write it as a number; the unit s⁻¹ goes unstated.

binder	koff, s⁻¹
466F6 (antibody, human IgG1, kappa, V domains shown, one of the 34 chimeric antibodies; rabbit variable regions on human IgG1 and human kappa; also called 466F6 chimeric rabbit/human IgG) VH: RSLEESGGRLVTPGTPLTLTCTASGFTISSYHMQWVRQAPGKGLEYIGTISSGGNVYYASWARGRFTISRPSSTTVDLKMTSLTTEDTATYFCARDSGYSDPMWGPGTLVTVSS VL: DVVMTQTPASVSEPVGGTVTIKCQASQNIRTYLSWYQQKPGQRPKLLIYAAANLASGVPSRFSGSRSGTEFTLTISDLECADAATYYCQCTYLGTDYVGGAFGGGTEVEFKR	0.0021

I'd like to know its koff. The binder in question is 416F8 (antibody, human IgG1, kappa, V domains shown, one of the 34 chimeric antibodies; rabbit variable regions on human IgG1 and human kappa; also called 416F8 chimeric rabbit/human IgG) VH: QSLEESGGRLVTPGTPLTLTCTASGFSLSNYYMNWVRQAPGKGLEYIGIISSSGSAYYASWAKGRFTISRTSTTVDLRITSPTTEDTATYFCARGDYGMDLWGQGTLVTVSS VL: AQVLTQTASSVSAPVGGTVTISCQSSQTVYNNNLLSWYQQKPGQRPKLLIYYASTLAFGVPSRFKGSGSGTEFTLTISDLECDDAATYFCQGGYSGWIYVFGGGTEVEVKR 0.0043

I'd like to know its koff. The binder in question is 411H11 (antibody, human IgG1, kappa, V domains shown, one of the 34 chimeric antibodies; rabbit variable regions on human IgG1 and human kappa; also called 411H11 chimeric rabbit/human IgG) VH: QSVEESGGRLVTPGTPLTLTCTVSGFTISSHHMIWVRQAPGEGLQYIGFINDGDYTYYTNWAKGRFTISRTSTTVDLKMTSLTAADTATYFCARGVDGTSYPGLWGPGTLVTVSS VL: DVVMTQTPASVSEPVRATVTIKCQASQSIGADLAWYQQKPGQPPKLLIYRASTLASGVPSRFSGSGSGTEFTLTISDLECADAATYYCQCIYYGTDDVIYHTFGGGTEVVFKR 0.001
